Tested on: MALME-3M melanoma
Assay: NCI-60 one-dose screen, 48 h (100 = growth as untreated, 0 = no growth, -100 = all killed)
Conditions: 10 µM unless noted
Method: Cells are grown in 96 well plates and exposed to the test compound for 48 hours. Compounds are tested at a single concentration, which is 10^-5 M for most compounds. The reported endpoint is percent growth (GI% or GIPRCNT), where numbers from 0 - 100% represent growth inhibition, and numbers from -100% - 0 represent cell death. For example, a value of 40 represents 60% growth inhibition. A value of 0 means no net growth occurred over the course of the experiment. […]
This is part of a sample that, as a whole, favours compounds with a hit. Of some 83,000 tested, about 20% had one in any assay.
ASSAY_METRIC: growth (%)
Number in %, nothing else.

The following compounds have reported results that may help.
CCN(CC)c1ccc(C(O)C2=CC(=O)c3ccccc3C2=O)cc1 (stereo not given); -11.3
CCOc1cc(-c2ccc[nH]2)[nH]c1/C=C1\N=C(C)C(C(=O)OC)=C1C; -61.1
CCCCCCCC/C=C/CCCCCCCC1=NC(C)(C)CN1CCO; 64.9
C[n+]1c2ccccc2c(NC2CCNCC2)c2[nH]c3ccccc3c21; -15.7

Switching to the query record.
What value of growth has been recorded for this entry: COc1ccc(C(=O)COc2cccc(/C=C3\Oc4ccc5ccccc5c4C3=O)c2)cc1
17.2

Cited source for all entries: PubChem BioAssay (NCI)
